Source listed as patent US8119628B2.

experimental-target: HCV NS5B (Hepatitis C virus genotype 1b)
Construct: The protein was expressed with an 18 amino acid C-terminal truncation to enhance the solubility; made in house; host or cells: E. coli BL21(DE3)
Sequence (Q9WMX2 2420-2992): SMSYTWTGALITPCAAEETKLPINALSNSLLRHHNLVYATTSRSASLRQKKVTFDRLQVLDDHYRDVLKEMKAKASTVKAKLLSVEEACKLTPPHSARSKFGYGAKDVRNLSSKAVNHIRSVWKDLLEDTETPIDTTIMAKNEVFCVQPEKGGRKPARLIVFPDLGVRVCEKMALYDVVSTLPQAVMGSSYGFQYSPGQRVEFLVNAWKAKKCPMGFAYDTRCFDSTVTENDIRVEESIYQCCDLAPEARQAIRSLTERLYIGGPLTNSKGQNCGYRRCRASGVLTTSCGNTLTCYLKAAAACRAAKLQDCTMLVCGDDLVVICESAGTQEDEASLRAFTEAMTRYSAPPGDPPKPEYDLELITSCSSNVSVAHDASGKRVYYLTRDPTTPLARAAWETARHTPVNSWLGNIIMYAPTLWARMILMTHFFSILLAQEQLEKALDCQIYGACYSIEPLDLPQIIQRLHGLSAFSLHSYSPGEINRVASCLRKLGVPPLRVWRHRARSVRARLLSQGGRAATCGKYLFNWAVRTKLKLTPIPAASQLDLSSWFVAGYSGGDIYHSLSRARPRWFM
assay-method-text: Modified HCV NS5B RdRp enzyme assay (preincubation protocol)
Format: biochemical
test-conditions: HCV NS5B RdRp genotype 1b
Recorded IC50 for the following compounds
Report as a plain number; the unit nM is understood.

compound	unit-of-measure	IC50
COc1ccc2c(c1)C1CN(C(=O)CN(C)C)CC1(C(=O)N(C)C)Cn1c-2c(C2CCCCC2)c2ccc(C(=O)NS(=O)(=O)N(C)C)cc21 (racemic)	nM	51
COc1ccc2c(c1)C1CN(C(C)C)CC1(C(=O)N1C[C@@H](C)O[C@@H](C)C1)Cn1c-2c(C2CCCCC2)c2ccc(C(=O)NS(=O)(=O)N(C)C)cc21 (mixture of isomers)	nM	200
COc1ccc2c(c1)C1CN(C(=O)[C@@H]3CCCN3C)CC1(C(=O)N(C)C)Cn1c-2c(C2CCCCC2)c2ccc(C(=O)NS(=O)(=O)N(C)C)cc21 (mixture of isomers)	nM	61

Task item: Data request, read-out IC50, for COc1ccc2c(c1)C1CNCC1(C(=O)N(C)C)Cn1c-2c(C2CCCCC2)c2ccc(C(=O)NS(=O)(=O)N(C)C)cc21 (racemic)
Reply: 41

Task item: What would you report for COc1ccc2c(c1)C1CN(Cc3ccccc3)CC1(C(=O)N1C[C@@H](C)O[C@@H](C)C1)Cn1c-2c(C2CCCCC2)c2ccc(C(=O)NS(=O)(=O)N(C)C)cc21 (mixture of isomers) ?
Reply: 430

Task item: What would you report for COc1ccc2c(c1)C1CN(C)CC1(C(=O)N(C)C)Cn1c-2c(C2CCCCC2)c2ccc(C(=O)NS(=O)(=O)N(C)C)cc21 (racemic) ?
Reply: 37
